# experiment notes: chemical genetic growth profiling, strain panel (AID 1159580);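 further: tested at 20 µM; growth read once vehicle control cultures reached saturation at 30 °C; 1 = growth at the plate median or of vehicle wells; lower values mean less growth of the strain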
# particulars: S. cerevisiae deletion strains, growth OD, locus YOL147C, strain pex11, active compounds read low
Hit rate of the full screen: of about 5,500 compounds, about 2,000 (36%) were called active. Roughly 18% stayed inconclusive and do not appear here. The list shows a part of the results.
Below, each entry is listed with its recorded normalized growth.
reported property: normalized growth

chem_smiles=CC(=O)Oc1cccc(C(=O)O)c1OC(C)=O observed_measurement="1.01 (inactive)"
chem_smiles=Cc1c(NC(=O)c2cccnc2)c(=O)n(-c2ccccc2)n1C observed_measurement="1 (inactive)"
chem_smiles=NCCc1c[nH]c2ccccc12 observed_measurement="0.988 (inactive)"
chem_smiles=CC(=O)NO observed_measurement="0.992 (inactive)"
